B1: CPEB3 Ribozyme (parent)
chain: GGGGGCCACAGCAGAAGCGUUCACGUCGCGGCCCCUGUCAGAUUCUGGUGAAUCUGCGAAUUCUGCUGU

variants of: B1; assay: self-cleavage, relative activity (ratio to wild type); higher = more cleavage; co-transcriptional
PROPERTY: self-cleavage
Lab note: jot the number down without any unit.

GGGGGCCACAGCAGAAGCGUUCACGUCGUGGCCCCUGUCAGAAUCUGGUGAAUCUGCGAAUUCUGCUGU [C29U U43A] = 0.171

Incoming: // returns reported self-cleavage for input GGGGGCCACAGCAGAAGCGUUCACGUCGCGGCCCCUGUUAGAUUCUGGUGAAUCUGCGAAGUCUGCUGU [C39U U61G]
Outgoing: 0.577

Incoming: Tell me the measured self-cleavage of AGGGGCCACAGCAGAAGCGUUCACUUCGCGGCCCCUGUCAGAUUCUGGUGAAUCUGCGAAUUCUGCUGU [G1A G25U] , please.
Outgoing: 0.076

Incoming: Requested field: self-cleavage. Item: GGGGGCCACAGCAGAAGCGUUCACGUCGCGGCCCAUGUCUGAUUCUGGUGAAUCUGCGAAUUCUGCUGU [C35A A40U]
Outgoing: 0.231

Incoming: For GGGGGCCACAGCAGAAGCGUUCACGUGGCGGCCCCUGUCAGAUUCUGGUGAAUCUUCGAAUUCUGCUGU [C27G G56U] , what is its reported self-cleavage?
Outgoing: 0.156

Incoming: Reported self-cleavage, variant GGGGGCCACAGCGGAAGCGUUCACGUCGCGGCCCCUGUCAGAUUCUCGUGAAUCUGCGAAUUCUGCUGU [A13G G47C] : ____
Outgoing: 0.997

Incoming: May I ask what self-cleavage has been recorded for GGGGGCCACAGUAGAAGCGUUCAAGUCGCGGCCCCUGUCAGAUUCUGGUGAAUCUGCGAAUUCUGCUGU [C12U C24A] ?
Outgoing: 0.713
